- System: SN12C renal
- ASSAY_REMARKS: NCI-60 one-dose screen, 48 h (100 = growth as untreated, 0 = no growth, -100 = all killed)
- EXPERIMENTAL_PARAMETERS: 10 µM unless noted
The panel holds about 83,000 compounds, 20% with a hit somewhere; the sample as a whole holds those more often.
MEASURED_PROPERTY: growth (%)
Field format: number, assumed %, no unit text.

# annotated cases, reported growth shown
[[record]]
molecule = "CC(=O)OC[C@H]1OC(Sc2sc(C(=O)c3ccc(Br)cc3)c(N)c2-c2nc3ccccc3s2)[C@H](OC(C)=O)[C@@H](OC(C)=O)[C@H]1OC(C)=O (stereo partly drawn)"
observed_result = 95.1

[[record]]
molecule = "COc1ccc(CN2c3ccccc3Sc3ccccc32)c(F)c1"
observed_result = 47.1

[[record]]
molecule = "C=CCc1cc(C)ccc1NC(C(=O)NCC(=O)OC)c1ccccc1 (stereo not drawn)"
observed_result = 91.4


// query Fill blank: measured growth of the molecule CCc1ccccc1-n1c(N)c(C#N)c(-c2ccc(Cl)cc2)c(C#N)c1=O is ____.
// result 106

// query Fill blank: measured growth of the molecule O=CN1N=C(c2ccc(Nc3ccnc4cc(Cl)ccc34)cc2)CC1c1ccccc1 (stereo not drawn) is ____.
// result 53.8

// query Fill blank: measured growth of the molecule CCC(=O)Nc1ccc(-c2nc(-c3cccc(OC)c3)c(-c3ccnc(Br)c3)[nH]2)cc1 is ____.
// result 68.3

// query Fill blank: measured growth of the molecule O=C(N/N=C/c1ccc(Cl)cc1)c1ccc(C(F)(F)F)nc1Nc1cccc(C(F)(F)F)c1 is ____.
// result 4.9

// query Fill blank: measured growth of the molecule CN1CCN(CC(=O)N2c3cccc4cccc(c34)N(C(=O)CN3CCN(C)CC3)C2c2cn(-c3ccccc3)nc2-c2cccc([N+](=O)[O-])c2)CC1 is ____.
// result -21.5

// query Fill blank: measured growth of the molecule CC([C@H]1CCC2C3CCC4C[C@@H](NC=O)CC[C@]4(C)C3CC[C@@]21C)N(C)C (stereo partly drawn) is ____.
// result 19.9

// query Fill blank: measured growth of the molecule c1ccc(Cc2nn3cc(-c4ccccc4)nc3s2)cc1 is ____.
// result 103

// query Fill blank: measured growth of the molecule COc1ccc(C2CC(c3ccc(Nc4ccnc5cc(Cl)ccc45)cc3)=NN2C=O)cc1 (stereo not drawn) is ____.
// result 64.4

* * *

Here the recorded growth is given for each entry.
- Tested on: MDA-MB-231 breast
- ASSAY_REMARKS: NCI-60 one-dose screen, 48 h (100 = growth as untreated, 0 = no growth, -100 = all killed)
- EXPERIMENTAL_PARAMETERS: 10 µM unless noted
Compounds without any hit were thinned out: in the full panel of roughly 83,000, 20% have a hit.
Field format: number, assumed %, no unit text.

# annotated cases, reported growth shown
[[record]]
compound = "Cc1ccc(-c2cnc3sc(C(=O)NCCc4ccccc4)c(C)n23)cc1"
observed_result = 79.1

[[record]]
compound = "c1cc2nc(-c3cn[nH]c3)c3c(c2cc1-c1cn[nH]c1)C1CCC3C1 (stereo unspecified)"
observed_result = 53


// query Fill blank: measured growth of the compound O=C1COCCN1c1ccc(NCc2cn(C(=O)c3ccc(Cl)cc3)c3ccccc23)cc1 is ____.
// result 118

// query Fill blank: measured growth of the compound CC(=O)CC(c1cccs1)c1c(-c2ccccc2)[nH]c2ccccc12 (stereo unspecified) is ____.
// result 86.9

// query Fill blank: measured growth of the compound CCOC(=O)C1=C(N)Oc2c(sc3c(C)cccc23)C1c1ccc(F)cc1 (stereo unspecified) is ____.
// result 27.8

// query Fill blank: measured growth of the compound c1ccc2cc(C[n+]3ccn(CCCCCCCCCCCCn4cc[n+](Cc5ccc6ccccc6c5)c4)c3)ccc2c1 is ____.
// result -74

// query Fill blank: measured growth of the compound COc1cc(OCc2cccc(-c3ccc(C(O)c4nccs4)cc3)c2C)cc(OC)c1CNCCNC(C)=O (stereo unspecified) is ____.
// result 101

// query Fill blank: measured growth of the compound Cc1ccc(C(=O)NCCNc2nccc(-c3c(-c4cccc(F)c4)nc4sccn34)n2)cc1 is ____.
// result 72.5

// query Fill blank: measured growth of the compound Cc1ccc2sc3c(NCCCN)nc4ccccc4c3c(=O)c2c1 is ____.
// result -14.6

// query Fill blank: measured growth of the compound O=c1cc(SCc2ccccc2)nc[nH]1 is ____.
// result 113

// query Fill blank: measured growth of the compound O=C1NC(=O)C(c2ccccc2)(c2ccccc2)N1Cc1cn(-c2c3ccccc3nc3ccccc23)nn1 is ____.
// result 73.1

* * *

- System: NCI-H23 lung
- ASSAY_REMARKS: NCI-60 one-dose screen, 48 h
- EXPERIMENTAL_PARAMETERS: 10 µM unless noted
Compounds without any hit were thinned out: in the full panel of roughly 83,000, 20% have a hit. The source made the active and inactive calls. The calls were made as follows: active = growth percent below 10; inactive = the rest.
Could you please pick one outcome from this set? active, inactive

[[record]]
compound = "COc1ccc(C(=O)COC(=O)[C@H](C[Se][Se]C[C@H](NC(=O)c2ccc(Br)cc2F)C(=O)OCC(=O)c2ccc(OC)cc2)NC(=O)c2ccc(Br)cc2F)cc1"
assigned_category = "active"

[[record]]
compound = "CCN1C(=O)N(CC)C2Nn3c(s/c(=C4\\C(=O)N(CC(C)C)c5ccccc54)c3=O)=NC21 (configuration not stated)"
assigned_category = "inactive"


// query So what was the verdict on COc1ccc2c(c1)c(-c1nn3cc(-c4cccs4)nc3s1)cn2C in this test?
// result inactive

// query So what was the verdict on CC/C=C\C[C@@H]1C/C=C2/C(=O)C=C[C@H]2C/C=C\CCCC(=O)O1 in this test?
// result active

// query So what was the verdict on COc1ccc(OC)c(/C=C/c2nnc(Nc3ccccc3)o2)c1 in this test?
// result inactive

// query So what was the verdict on CCc1cccc2c1S/C(=C/c1ccc(Cl)cc1)C2=O in this test?
// result inactive

* * *

- Tested on: HCC-2998 colon
- ASSAY_REMARKS: NCI-60 one-dose screen, 48 h (100 = growth as untreated, 0 = no growth, -100 = all killed)
- EXPERIMENTAL_PARAMETERS: 10 µM unless noted
This is part of a sample that, as a whole, favours compounds with a hit. Of some 83,000 tested, about 20% had one in any assay.
MEASURED_PROPERTY: growth (%)
Field format: number, assumed %, no unit text.

[[record]]
compound = "CCOC(=O)c1c2c(n(-c3ccc(C#N)cc3)c1-c1ccccc1)C=CCC2"
observed_result = 90.5

[[record]]
compound = "CCOC(=O)CCN(C(=O)Nc1ccccc1)C1CCCCC1"
observed_result = 74.8

[[record]]
compound = "CN1CCN(Cc2ccc(NC(=O)c3ccc(C(C)(C)C)c(C#Cc4cnc5cccnn45)c3)cc2C(F)(F)F)CC1"
observed_result = -81.6

[[record]]
compound = "COc1cc(/C=C/C(=O)/C=C/c2cc(OC)c3c(c2OC)OCO3)c(OC)c2c1OCO2"
observed_result = 107

[[record]]
compound = "CCCCC[C@H](O)C/C=C1/C(=O)C=C[C@@H]1C/C=C\\CCCC(=O)O"
observed_result = 76.5


// query Fill blank: measured growth of the compound COc1cccc(-c2nc(-c3ccc(NC(=O)OC(C)C)cc3)[nH]c2-c2ccnc(Br)c2)c1 is ____.
// result 39.5

// query Fill blank: measured growth of the compound CC(=O)OC[C@H]1OC(Sc2sc(C(=O)c3ccc(Cl)cc3)c(N)c2-c2nc3ccccc3s2)[C@H](OC(C)=O)[C@@H](OC(C)=O)[C@@H]1OC(C)=O (stereo partly drawn) is ____.
// result 109

// query Fill blank: measured growth of the compound Cc1cc(Cl)ccc1NS(=O)(=O)c1ccc(-c2cnc(C3CC3)o2)cc1 is ____.
// result 15.9

// query Fill blank: measured growth of the compound Cc1cc(-c2cc(C)c(N)cc2C)c(C)cc1N is ____.
// result 104

// query Fill blank: measured growth of the compound O=C1/C(=C/c2ccccc2[N+](=O)[O-])Oc2ccc(O)c(O)c21 is ____.
// result 57.9

// query Fill blank: measured growth of the compound CCCCn1c(=O)c(-c2cc(-c3ccc(Cl)cc3)nc(-c3ccc(Cl)cc3)c2)cc2cc(Cl)ccc21 is ____.
// result 102

// query Fill blank: measured growth of the compound O=c1n(Cc2ccc3ccccc3c2)ccn1Cc1ccc2ccccc2c1 is ____.
// result 103

// query Fill blank: measured growth of the compound N#Cc1c(-c2ccc(Cl)cc2)nc2c(c(-c3ccccc3)nn2-c2ccccc2)c1-c1ccc(O)cc1 is ____.
// result 84.9

// query Fill blank: measured growth of the compound O=c1c2cc(C(F)(F)F)ccc2sc2c(NCCCNCCO)nc3ccccc3c12 is ____.
// result -89.8

// query Fill blank: measured growth of the compound O=C1/C(=C/c2ccc(F)cc2)Sc2c(Br)cccc21 is ____.
// result 99.3

// query Fill blank: measured growth of the compound O=C(CSc1nc2ccccc2[nH]1)Nc1cccc(Cl)c1 is ____.
// result 103
